Documented BAF3-FLT3 (MIN IL3) 384 well pIC50 across a set of compounds
target: Ba/F3-Flt3-transfected cells (Homo sapiens, UniProt P36888, cells depend on it, form not given); assay: Ba/F3-Flt3 (minus IL3) cellular proliferation assay, Alamar Blue; assay type: cell-based; conditions: minus IL3, 384 well
measured attribute: BAF3-FLT3 (MIN IL3) 384 well pIC50

- molecule: "COc1cc(OC)cc(N(CC2CC2)c2ccc3ncc(-c4nnc(C)o4)nc3c2)c1"
  test value: "<5"
- molecule: "COc1cc(OC)cc(N(CC2CC2)c2ccc3ncc(-c4ccc5c(ccn5C)c4)nc3c2)c1"
  test value: "<5"
- molecule: "COc1cc(OC)cc(N(CC2CC2)c2ccc3ncc(-c4ccc(OC)nc4)nc3c2)c1"
  test value: "<5"
- molecule: "COc1cc(OC)cc(N(CC2CC2)c2ccc3ncc(N4CCOCC4)nc3c2)c1"
  test value: "<5"
- molecule: "COc1cc(OC)cc(N(CC2CC2)c2ccc3ncc(-c4ccncc4)nc3c2)c1"
  test value: "<5"
- molecule: "COc1cc(OC)cc(N(CC2CC2)c2ccc3ncc(N4CCN(C)CC4)nc3c2)c1"
  test value: "<5"
- molecule: "COc1cc(OC)cc(N(CC2CC2)c2ccc3ncc(-c4cnc5[nH]ccc5c4)nc3c2)c1"
  test value: "<5"
- molecule: "COc1cc(OC)cc(N(CC2CC2)c2ccc3ncc(-c4ccc5[nH]ccc5c4)nc3c2)c1"
  test value: "<5"
- molecule: "COc1cc(OC)cc(N(CC2CC2)c2ccc3ncc(-c4ccc5c(c4)OCO5)nc3c2)c1"
  test value: "<5.4"
- molecule: "COc1cc(OC)cc(N(CC2CC2)c2ccc3ncc(C#Cc4cncn4C)nc3c2)c1"
  test value: "<5"
- molecule: "COc1cc(OC)cc(N(CC2CC2)c2ccc3ncc(-c4ccnc(N5CCN(C)CC5)c4)nc3c2)c1"
  test value: 5.05
